The reported numbers originate from patent US8618111B2.

pIC50: −log10 of the molar value.
Quick record of pIC50 values for mTOR (Homo sapiens (Human)).
outcome.measure: pIC50

molecule | outcome.measure | result.value
CCc1ncnc(N2CCN(C(C)C)CC2)c1C#Cc1ccc(N)nc1 [Example H-6] | pIC50 | 7.82
CCc1ncnc(N2CCNC(=O)C2)c1C#Cc1ccc(N)nc1 [Example H-5] | pIC50 | 7.04
CCc1ncnc(N2CCCCC2)c1C#Cc1ccc(NC)nc1 [Example H-1] | pIC50 | 7.26
CCc1ncnc(N2CCC3(CC2)CC(=O)NC(=O)C3)c1C#Cc1ccc(N)nc1 [Example B-82] | pIC50 | 8.30
CCc1ncnc(N2CCC(O)CC2)c1C#Cc1ccc(C)nc1 [Example B-70] | pIC50 | 6.85
CCc1ncnc(N2CCC(C)(OC)CC2)c1C#Cc1ccc(N)nc1 [Example B-59] | pIC50 | 8.30
CCc1ncnc(N2CCN(C(=O)OC)CC2)c1C#Cc1ccc(N)nc1 [Example G-6] | pIC50 | 7.00
CCc1ncnc(N2CCC3(CC2)COC3)c1C#Cc1ccc(N)nc1 [Example H-7] | pIC50 | 6.86
CCc1ncnc(N2CCC(O)CC2)c1C#Cc1ccc(NC)nc1 [Example B-87] | pIC50 | 7.70
Cc1ncnc(N2CCOCC2)c1C#Cc1ccc(N)nc1 [Example B-4] | pIC50 | 7.42
CCc1ncnc(N2CCN(C3CCOCC3)CC2)c1C#Cc1ccc(N)nc1 [Example H-12] | pIC50 | 7.11
CCc1ncnc(N2CCC(OC)CC2)c1C#Cc1ccc(NC)nc1 [Example B-86] | pIC50 | 8.05
CCc1ncnc(N2CCC3(CC2)OCCO3)c1C#Cc1ccc(N)nc1 [Example B-22] | pIC50 | 8.40
CCc1ncnc(N2CCc3ccccc3C2)c1C#Cc1ccc(N)nc1 [Example H-17] | pIC50 | 7.17
Cc1ncnc(N2CCN(C(=O)C3CCC3)CC2)c1C#Cc1ccc(N)nc1 [Example G-8] | pIC50 | 7.19
CCc1ncnc(N2CCN(C3COC3)CC2)c1C#Cc1ccc(N)nc1 [Example H-26] | pIC50 | 7.33
CCc1ncnc(N2CCN(CCNS(C)(=O)=O)CC2)c1C#Cc1ccc(N)nc1 [Example H-14] | pIC50 | 7.74
Cc1ncnc(N2CCC3(CC2)OCCO3)c1C#Cc1ccc(N)nc1 [Example B-26] | pIC50 | 8.00
CCCCCC(=O)NCC1CCN(c2ncnc(C)c2C#Cc2ccc(N)nc2)CC1 [Example F-2] | pIC50 | 7.51

====

# collection of pIC50 values tested on mTOR (Homo sapiens (Human), UniProt P42345)
# Sequence (P42345 1360-2549): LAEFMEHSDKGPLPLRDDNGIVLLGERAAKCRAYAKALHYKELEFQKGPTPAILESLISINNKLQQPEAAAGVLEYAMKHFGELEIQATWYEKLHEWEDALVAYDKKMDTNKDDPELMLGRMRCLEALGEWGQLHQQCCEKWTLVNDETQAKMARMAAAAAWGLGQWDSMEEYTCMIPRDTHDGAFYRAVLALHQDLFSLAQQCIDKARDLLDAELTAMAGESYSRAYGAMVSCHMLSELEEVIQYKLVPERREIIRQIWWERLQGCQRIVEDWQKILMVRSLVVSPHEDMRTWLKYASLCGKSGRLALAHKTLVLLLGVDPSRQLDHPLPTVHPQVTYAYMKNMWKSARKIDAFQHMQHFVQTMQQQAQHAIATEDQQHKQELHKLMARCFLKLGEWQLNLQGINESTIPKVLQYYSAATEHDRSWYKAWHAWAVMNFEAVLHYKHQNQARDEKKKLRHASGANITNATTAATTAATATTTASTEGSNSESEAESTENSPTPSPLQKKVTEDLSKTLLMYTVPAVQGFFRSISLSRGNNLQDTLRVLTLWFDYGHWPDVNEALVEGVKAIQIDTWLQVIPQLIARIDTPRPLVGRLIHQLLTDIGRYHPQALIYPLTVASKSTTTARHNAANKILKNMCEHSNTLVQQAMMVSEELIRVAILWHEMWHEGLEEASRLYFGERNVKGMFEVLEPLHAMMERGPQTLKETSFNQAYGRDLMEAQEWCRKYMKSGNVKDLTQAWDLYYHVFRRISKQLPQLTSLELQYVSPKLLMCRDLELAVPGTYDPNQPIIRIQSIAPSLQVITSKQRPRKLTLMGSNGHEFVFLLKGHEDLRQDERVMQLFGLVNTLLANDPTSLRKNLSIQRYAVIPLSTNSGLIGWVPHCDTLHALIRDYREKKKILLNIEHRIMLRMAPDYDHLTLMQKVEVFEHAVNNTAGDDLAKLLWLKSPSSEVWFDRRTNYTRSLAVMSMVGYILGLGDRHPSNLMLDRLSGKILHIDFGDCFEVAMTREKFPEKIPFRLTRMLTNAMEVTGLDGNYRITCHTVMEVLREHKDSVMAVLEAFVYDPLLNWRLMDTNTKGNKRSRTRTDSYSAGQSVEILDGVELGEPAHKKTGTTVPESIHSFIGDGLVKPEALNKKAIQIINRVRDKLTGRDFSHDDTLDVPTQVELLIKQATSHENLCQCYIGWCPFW
pIC50: −log10 of the molar value.

compound | measurement.target | pIC50
Cc1ncnc(N2CCC(CC(C)(C)O)CC2)c1C#Cc1ccc(N)nc1 | mTOR (Homo sapiens (Human), UniProt P42345) | 7.74
CCc1ncnc(N2CCC(O)(C(F)(F)F)CC2)c1C#Cc1ccc(N)nc1 | mTOR (Homo sapiens (Human), UniProt P42345) | 9.00
CCc1ncnc(N2CCCC(NC(C)=O)C2)c1C#Cc1ccc(N)nc1 (centres unmarked) | mTOR (Homo sapiens (Human), UniProt P42345) | 7.80
CCc1ncnc(N2CCN(C(=O)c3ccccn3)CC2)c1C#Cc1ccc(N)nc1 | mTOR (Homo sapiens (Human), UniProt P42345) | 7.05
CCc1ncnc(N2CCN(C(=O)c3ccco3)CC2)c1C#Cc1ccc(N)nc1 | mTOR (Homo sapiens (Human), UniProt P42345) | 7.22

====

Items are presented alongside their recorded IC50 PI3Ka.
- measurement.target: PI3Kalpha (Homo sapiens (Human), UniProt P42336)
- Sequence (P42336 whole entry, species assumed): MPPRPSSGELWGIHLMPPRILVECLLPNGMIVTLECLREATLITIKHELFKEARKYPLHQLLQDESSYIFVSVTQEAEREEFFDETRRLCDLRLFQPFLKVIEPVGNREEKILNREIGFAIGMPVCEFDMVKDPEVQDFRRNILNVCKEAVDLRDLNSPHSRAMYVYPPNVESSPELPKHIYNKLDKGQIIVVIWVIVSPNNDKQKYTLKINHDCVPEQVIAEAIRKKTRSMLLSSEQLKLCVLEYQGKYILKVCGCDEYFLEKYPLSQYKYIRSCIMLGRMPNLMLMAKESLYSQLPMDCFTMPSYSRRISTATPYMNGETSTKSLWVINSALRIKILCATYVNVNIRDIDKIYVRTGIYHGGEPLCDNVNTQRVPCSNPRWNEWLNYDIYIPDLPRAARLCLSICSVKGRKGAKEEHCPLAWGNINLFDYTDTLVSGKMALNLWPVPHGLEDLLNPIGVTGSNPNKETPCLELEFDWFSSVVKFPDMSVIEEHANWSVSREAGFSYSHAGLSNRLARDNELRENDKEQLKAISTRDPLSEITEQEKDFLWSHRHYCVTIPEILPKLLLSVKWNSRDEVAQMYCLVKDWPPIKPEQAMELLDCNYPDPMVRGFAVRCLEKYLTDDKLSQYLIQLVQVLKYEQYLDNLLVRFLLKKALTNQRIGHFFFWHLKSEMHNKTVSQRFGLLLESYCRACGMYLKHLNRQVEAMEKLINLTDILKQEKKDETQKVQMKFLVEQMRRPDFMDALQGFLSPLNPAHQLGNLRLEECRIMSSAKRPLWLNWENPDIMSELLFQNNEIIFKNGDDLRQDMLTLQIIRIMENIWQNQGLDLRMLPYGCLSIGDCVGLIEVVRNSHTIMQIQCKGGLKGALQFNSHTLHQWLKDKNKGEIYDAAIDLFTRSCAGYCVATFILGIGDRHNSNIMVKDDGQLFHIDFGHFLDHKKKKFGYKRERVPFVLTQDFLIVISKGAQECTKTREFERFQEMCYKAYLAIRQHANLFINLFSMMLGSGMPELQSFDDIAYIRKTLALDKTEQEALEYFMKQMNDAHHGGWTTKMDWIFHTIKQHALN
- Sequence (P27986 whole entry partner, species assumed): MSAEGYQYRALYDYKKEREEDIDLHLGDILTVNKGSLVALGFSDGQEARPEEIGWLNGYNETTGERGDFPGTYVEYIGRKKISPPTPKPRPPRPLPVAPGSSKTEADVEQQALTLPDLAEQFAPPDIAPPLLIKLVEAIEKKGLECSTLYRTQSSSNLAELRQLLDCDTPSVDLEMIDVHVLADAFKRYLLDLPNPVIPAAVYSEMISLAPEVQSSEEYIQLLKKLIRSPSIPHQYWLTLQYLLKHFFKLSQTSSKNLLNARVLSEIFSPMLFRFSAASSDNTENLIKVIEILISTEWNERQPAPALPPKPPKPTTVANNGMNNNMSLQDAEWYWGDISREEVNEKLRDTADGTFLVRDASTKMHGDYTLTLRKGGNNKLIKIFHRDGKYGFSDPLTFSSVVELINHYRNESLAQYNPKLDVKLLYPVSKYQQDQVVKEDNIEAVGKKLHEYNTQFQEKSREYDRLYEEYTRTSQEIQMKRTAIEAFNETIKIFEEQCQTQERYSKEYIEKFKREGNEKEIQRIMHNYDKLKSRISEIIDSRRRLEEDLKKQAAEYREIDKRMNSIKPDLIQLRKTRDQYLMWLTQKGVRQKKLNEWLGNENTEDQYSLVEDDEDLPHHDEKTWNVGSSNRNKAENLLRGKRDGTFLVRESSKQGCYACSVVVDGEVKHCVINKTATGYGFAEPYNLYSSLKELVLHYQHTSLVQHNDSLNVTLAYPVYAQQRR
- run.description: Inhibition of PI3Kalpha-induced PIP-2 phosphorylation (filter-binding assay)
- Format: biochemical
- conditions.used: 33P-ATP
outcome.measure: IC50 PI3Ka (nM)

smiles.notation | outcome.measure | result.value
CCc1ncnc(N2CCN(c3ccncc3)CC2)c1C#Cc1ccc(N)nc1 | IC50 PI3Ka | 229
CCc1ncnc(N2CCCCC2)c1C#Cc1ccc(NC)nc1 | IC50 PI3Ka | 214
CCc1ncnc(N2CCOC(C)(C)C2)c1C#Cc1ccc(N)nc1 | IC50 PI3Ka | 49
CCc1ncnc(N2CCN(C3CC3)CC2)c1C#Cc1ccc(N)nc1 | IC50 PI3Ka | 86
Cc1ncnc(N2CCN(C)CC2)c1C#Cc1ccc(N)nc1 | IC50 PI3Ka | 547
Cc1ncnc(N2CCN(C(=O)c3ccno3)CC2)c1C#Cc1ccc(N)nc1 | IC50 PI3Ka | 39
CCc1ncnc(N2CCC(CO)CC2)c1C#Cc1ccc(N)nc1 | IC50 PI3Ka | 58
CCc1ncnc(N2CCN(CC(C)(C)O)CC2)c1C#Cc1ccc(N)nc1 | IC50 PI3Ka | 143
CCc1ncnc(N2CCC(O)CC2)c1C#Cc1ccc(NC)nc1 | IC50 PI3Ka | 76

====

- measurement.target: mTOR (Homo sapiens (Human))
pIC50: −log10 of the molar value.
Dear colleague, classification is by pIC50, with ranges listed here: 0 = under 7, 1 = from 7 up to 8, 2 = 8 and over

compound | class
CCc1ncnc(N2CCC(O)(C(F)(F)F)CC2)c1C#Cc1ccc(C)nc1 [Example B-31] | 1
CCc1ncnc(N2CCN(CC(C)O)CC2)c1C#Cc1ccc(N)nc1 (stereo not drawn) [Example H-20] | 1
Cc1ncnc(N2CCC(CC(=O)N3CCN(C)CC3)CC2)c1C#Cc1ccc(N)nc1 [Example E-2] | 0
CCOC1CCN(c2ncnc(CC)c2C#Cc2ccc(C)nc2)CC1 [Example B-69] | 0
CCc1ncnc(N2CCC3(CC2)OCCCO3)c1C#Cc1ccc(N)nc1 [Example B-61] | 2

====

- measurement.target: PI3Kalpha (Homo sapiens (Human), UniProt P42336)
- run.description: Inhibition of PI3Kalpha-induced PIP-2 phosphorylation (filter-binding assay)
- Assay type: biochemical
- conditions.used: 33P-ATP

molecule | IC50 PI3Ka, nM
CCc1ncnc(N2CCc3c(ncnc3N3CCOCC3)C2)c1C#Cc1ccc(N)nc1 | 103
CCc1ncnc(N2CCC(O)(C(F)(F)F)CC2)c1C#Cc1ccc(C)nc1 | 172
CCc1ncnc(N2CCC3(CC2)COC3)c1C#Cc1ccc(N)nc1 | 97
CCc1ncnc(N2CCN(S(C)(=O)=O)CC2)c1C#Cc1ccc(N)nc1 | 88
CCc1ncnc(N2CCC(O)CC2)c1C#Cc1ccc(N)nc1 | 99
CC(=O)NC1CCCN(c2ncnc(C)c2C#Cc2ccc(N)nc2)C1 (stereo not drawn) | 158
Cc1ncnc(N2CCC(CC(=O)N3CCOCC3)CC2)c1C#Cc1ccc(N)nc1 | 83
Cc1ncnc(N2CCC(CC(=O)N(C)C)CC2)c1C#Cc1ccc(N)nc1 | 54
CCc1ncnc(N2CCC(CCO)CC2)c1C#Cc1ccc(C)nc1 | 88
Cc1ncnc(N2CCC(CC(=O)NCCN(C)C)CC2)c1C#Cc1ccc(N)nc1 | 149
Cc1ncnc(N2CCC(O)C(C)C2)c1C#Cc1ccc(N)nc1 (stereo not drawn) | 90
Cc1ncnc(N2CCN(C3CC3)CC2)c1C#Cc1ccc(N)nc1 | 58
CCc1ncnc(N2CCC(OC)CC2)c1C#Cc1ccc(NC)nc1 | 94
Cc1ncnc(N2CCC3(CC2)OCCO3)c1C#Cc1ccc(N)nc1 | 60
CCc1ncnc(N2CCC(C)(O)CC2)c1C#Cc1ccc(C)nc1 | 84

====

- measurement.target: mTOR (Homo sapiens (Human), UniProt P42345)

molecule | IC50
Cc1ncnc(N2CCC(O)(C(C)C)CC2)c1C#Cc1ccc(N)nc1 | 5 nM
CCc1ncnc(N2CCC(OCCOC)CC2)c1C#Cc1ccc(N)nc1 | 36 nM
CCc1ncnc(N2CCCC(CO)C2)c1C#Cc1ccc(N)nc1 (stereo not shown) | 28 nM
CCc1ncnc(N2CCC(CCO)CC2)c1C#Cc1ccc(C)nc1 | 67 nM

====

- measurement.target: mTOR (Homo sapiens (Human), UniProt P42345)

molecule | value.units | IC50
CCc1ncnc(N2CCC(CO)CC2)c1C#Cc1ccc(N)nc1 [Example B-45] | nM | 10
CCc1ncnc(N2CCC(O)(CC)CC2)c1C#Cc1ccc(N)nc1 [Example B-36] | nM | 5
Cc1ncnc(N2CCC3(CCNC3=O)CC2)c1C#Cc1ccc(N)nc1 [Example B-84] | nM | 19
Cc1ncnc(N2CCN(C)CC2)c1C#Cc1ccc(N)nc1 [Example B-8] | nM | 56

====

- measurement.target: mTOR (Homo sapiens (Human))
- run.description: mTOR kinase activity assay (phosphorylation status of mTOR substrate 4E-BP1; TR-FRET)
- Assay type: biochemical
- conditions.used: GFP-4E-BP1 substrate, 8 μM ATP
- Description: mTOR Kinase Activity Assay (Phosphorylation Status of mTOR Substrate 4E-BP1; TR-FRET) […] Inhibitors are serially diluted in DMSO, then diluted to a 4× working concentration with 1× Assay Buffer. • 1. […] Stop Step and Fluorescence Detection • 1. […] Measure the GFP (FRET) and terbium (reference) emission signals on a fluorescence plate reader (e.g. Perkin Elmer Envision). […]
Threshold 40 nM. IC50 below it: 1.0. IC50 at it or above: 0.0.

compound | class
Cc1ncnc(N2CCC(CC(=O)N3CCOCC3)CC2)c1C#Cc1ccc(N)nc1 [Example E-6] | 0.0
CC(=O)NC1CCN(c2ncnc(C)c2C#Cc2ccc(N)nc2)CC1 [Example B-25] | 0.0
Cc1ncnc(N2C[C@@H](C)O[C@@H](C)C2)c1C#Cc1ccc(N)nc1 [Example B-9] | 1.0
Cc1ncnc(N2CCC(O)(C(F)(F)F)CC2)c1C#Cc1ccc(N)nc1 [Example B-32] | 1.0
CCc1ncnc(N2CCC(C(C)(C)O)CC2)c1C#Cc1ccc(N)nc1 [Example B-11] | 1.0
CCc1ncnc(N2CCN(c3ccncc3)CC2)c1C#Cc1ccc(N)nc1 [Example H-22] | 0.0
CCc1ncnc(N2CCC(OC)CC2)c1C#Cc1ccc(N)nc1 [Example B-44] | 1.0
CCc1ncnc(N2CCC(C)(O)CC2)c1C#Cc1ccc(N)nc1 [Example B-47] | 1.0
CCc1ncnc(N2CCC(O)C(C)C2)c1C#Cc1ccc(N)nc1 (stereo not shown) [Example B-64] | 1.0
CCc1ncnc(N2CCN(C)CC2)c1C#Cc1ccc(N)nc1 [Example B-56] | 0.0
Cc1ncnc(N2CCC(O)(Cc3ccccc3)CC2)c1C#Cc1ccc(N)nc1 [Example B-28] | 0.0
CCc1ncnc(N2CCc3c(ncnc3N3CCOCC3)C2)c1C#Cc1ccc(N)nc1 [Example H-27] | 0.0
Cc1ncnc(N2CCC3(CC2)OCCCO3)c1C#Cc1ccc(N)nc1 [Example B-60] | 1.0
